Target: CMV polymerase (Human cytomegalovirus)
Construct: made in house; host or cells: recombinant baculovirus-infected SF-9 cells
Sequence (P08546 whole entry): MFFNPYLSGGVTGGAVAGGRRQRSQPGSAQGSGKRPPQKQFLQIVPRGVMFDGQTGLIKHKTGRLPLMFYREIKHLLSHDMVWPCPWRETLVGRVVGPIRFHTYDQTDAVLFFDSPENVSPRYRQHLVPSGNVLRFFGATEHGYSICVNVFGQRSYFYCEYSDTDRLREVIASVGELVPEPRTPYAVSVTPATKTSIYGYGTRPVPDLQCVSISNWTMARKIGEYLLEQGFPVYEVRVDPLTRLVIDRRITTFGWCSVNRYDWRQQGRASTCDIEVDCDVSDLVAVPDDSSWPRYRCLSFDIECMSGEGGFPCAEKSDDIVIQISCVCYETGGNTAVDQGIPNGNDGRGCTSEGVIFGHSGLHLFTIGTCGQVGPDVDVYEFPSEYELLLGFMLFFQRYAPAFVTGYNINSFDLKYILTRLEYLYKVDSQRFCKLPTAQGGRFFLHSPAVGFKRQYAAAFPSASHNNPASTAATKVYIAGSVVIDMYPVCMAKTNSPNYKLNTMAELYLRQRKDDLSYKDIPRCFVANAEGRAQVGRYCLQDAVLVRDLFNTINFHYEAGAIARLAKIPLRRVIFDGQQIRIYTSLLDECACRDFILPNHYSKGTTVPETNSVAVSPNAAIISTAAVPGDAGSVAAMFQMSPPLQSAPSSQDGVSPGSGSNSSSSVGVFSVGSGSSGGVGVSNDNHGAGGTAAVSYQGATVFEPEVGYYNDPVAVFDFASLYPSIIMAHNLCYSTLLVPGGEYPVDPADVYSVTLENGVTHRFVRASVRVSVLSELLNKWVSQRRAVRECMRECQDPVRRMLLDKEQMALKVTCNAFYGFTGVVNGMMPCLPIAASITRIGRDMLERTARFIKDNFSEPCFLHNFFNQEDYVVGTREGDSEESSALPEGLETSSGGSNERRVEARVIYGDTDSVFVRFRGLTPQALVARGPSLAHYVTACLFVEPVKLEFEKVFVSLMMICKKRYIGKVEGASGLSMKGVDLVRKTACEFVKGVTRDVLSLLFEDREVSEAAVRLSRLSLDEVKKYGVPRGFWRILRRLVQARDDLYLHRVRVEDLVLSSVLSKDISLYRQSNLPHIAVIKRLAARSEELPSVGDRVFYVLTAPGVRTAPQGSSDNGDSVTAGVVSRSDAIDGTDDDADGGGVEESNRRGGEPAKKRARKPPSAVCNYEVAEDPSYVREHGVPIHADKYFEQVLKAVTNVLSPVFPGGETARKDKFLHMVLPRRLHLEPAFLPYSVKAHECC
Assay: modified version of the HCMV polymerase assay (100% DMSO dilution, DTT, different enzyme lot)
Format: biochemical
Conditions: Concentration 100 μM; Table 6
Documented inhibition at 100 µM across a set of compounds
metric name: inhibition at 100 µM

1. Cc1ccc2c(Cl)cc(S(=O)(=O)NCCc3ccccn3)c(O)c2n1	33%
2. Cc1ccc2c(Cl)cc(S(=O)(=O)NCCc3ccc(NS(=O)(=O)c4ccccc4)cc3)c(O)c2n1	86%
3. Cc1ccc2c(Cl)cc(S(=O)(=O)NCCc3ccc(NS(=O)(=O)c4c(C)noc4C)cc3)c(O)c2n1	-23%
4. Cc1ccc2c(Cl)cc(S(=O)(=O)NCCCCc3ccccc3)c(O)c2n1	38%
5. Cc1ccc2c(Cl)cc(S(=O)(=O)NCc3ccccn3)c(O)c2n1	31%
6. O=S(=O)(NCCSc1ccccc1)c1cc(Cl)c2ccc(/C=C/c3ccccc3)nc2c1O	92%
7. Cc1ccc2c(Cl)cc(S(=O)(=O)NCCc3ccc(Cl)cc3)c(O)c2n1	55%

Provenance of the data: patent US6500842B1
